- measuredOn: human URAT1 (Homo sapiens, UniProt Q96S37)
- Construct: Human URAT1 full-length cDNA was introduced to an expression vector pcDNA5/FRT/V5-His TOPO
- Sequence (Q96S37 whole entry): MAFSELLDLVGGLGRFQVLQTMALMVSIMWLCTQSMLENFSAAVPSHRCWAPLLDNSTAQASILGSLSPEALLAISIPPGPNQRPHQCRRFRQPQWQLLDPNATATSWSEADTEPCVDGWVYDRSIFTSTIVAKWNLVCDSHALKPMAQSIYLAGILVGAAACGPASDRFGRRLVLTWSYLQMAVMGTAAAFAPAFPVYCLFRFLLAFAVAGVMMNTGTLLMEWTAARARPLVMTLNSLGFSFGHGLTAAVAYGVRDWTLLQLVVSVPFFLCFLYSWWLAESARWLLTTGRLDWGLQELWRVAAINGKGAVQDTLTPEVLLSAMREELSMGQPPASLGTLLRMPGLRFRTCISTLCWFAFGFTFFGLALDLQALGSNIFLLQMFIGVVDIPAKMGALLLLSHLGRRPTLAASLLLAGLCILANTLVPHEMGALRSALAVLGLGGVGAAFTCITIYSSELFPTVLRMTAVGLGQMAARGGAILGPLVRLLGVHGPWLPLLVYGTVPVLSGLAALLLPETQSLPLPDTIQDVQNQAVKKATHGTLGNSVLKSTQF
- testDescription: Test for uric acid transport inhibition using human URAT1 expression cells
- conditionParameters: human URAT1 stable expression CHO cells; 14C-labeled uric acid 38 μM final; incorporation 5 minutes at room temperature; 100% window defined with benzbromarone 100 μM; read-out: URAT1 inhibitory activity (IC50)
measureName: IC50 (nM)
Kindly answer with a numeric value in nM, unit omitted.

Examples with their reported IC50 follow.
In [3]: df
Out[3]:
                                   molecule  valueunits  measurednumber
0  O=C(O)C(F)(F)c1ccc2c(C(F)(F)F)nn(Cc3c(Cl)cccc3Cl)c2c1 [Example 36]          nM             107
1  Cc1nn(Cc2c(C#N)cccc2C2CC2)c2cc(C(F)(F)C(=O)O)ccc12 [example 32]          nM              23
2  Cc1nn(Cc2c(F)cccc2Cl)c2cc(C(F)(F)C(=O)O)ccc12 [example 9]          nM              40
3  Cc1nn(Cc2c(Cl)cccc2Cl)c2cc(C(F)(F)c3nnn[nH]3)ccc12 [Example 50]          nM               7
4  Cc1nn(Cc2c(C#N)cccc2CO)c2cc(C(F)(F)c3nnn[nH]3)ccc12 [example 104]          nM              30
5  O=C(O)c1cnc2c(C(F)(F)F)nn(Cc3c(Cl)cccc3C3CC3)c2c1 [Reference Example 5, reference compound]          nM              13
6  Cc1cccc(CC#N)c1Cn1nc(C)c2ccc(C(F)(F)c3nnn[nH]3)cc21 [Example 107]          nM              12
7  Cc1cccc(C#N)c1Cn1nc(CO)c2ccc(C(F)(F)C(=O)O)cc21 [example 121]          nM             268

Query block: Form field: IC50 recorded for Cc1nn(Cc2cccc3ccncc23)c2cc(C(F)(F)c3nnn[nH]3)ccc12 [Example 94] with human URAT1 (Homo sapiens, UniProt Q96S37) (enter value)
Result block: 125

Query block: Request - read-out IC50 | tested on human URAT1 (Homo sapiens, UniProt Q96S37) | molecule Cc1nn(Cc2c(Cl)cccc2C2CC2)c2cc(C(F)(F)C(=O)O)ccc12 [Example 12]
Result block: 17

Query block: // fetch human URAT1 (Homo sapiens, UniProt Q96S37) IC50 for O=C(O)C(F)(F)c1ccc2c(Cl)nn(Cc3c(Cl)cccc3Cl)c2c1 [Example 34]
Result block: 15
